test: chemical genetic growth profiling, strain panel (AID 1159580);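 further: tested at 20 µM; growth read once vehicle control cultures reached saturation at 30 °C; 1 = growth at the plate median or of vehicle wells; lower values mean less growth of the strain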; conditions: S. cerevisiae deletion strains, growth OD, locus YOL136C, strain PFK27, active compounds read low
In all, about 5,500 compounds went through this assay and about 2,000 (36%) were called active. Roughly 18% stayed inconclusive and do not appear here. This is one part of the list.
Measured normalized growth of individual entries
API doc: respond with a numeric literal and nothing else, no unit.

Query block: Need normalized growth, item CC(=O)c1ccc(Cl)c(N=Cc2cc(Cl)cc(Cl)c2O)c1
Result block: 0.197

Query block: Need normalized growth, item COC(=O)c1sccc1NS(=O)(=O)c1cc(Cl)cc(Cl)c1
Result block: 0.996

Query block: Need normalized growth, item CC(C)(C)c1cc(C(=O)Nc2ccc3c(c2)OCO3)n(Cc2ccc(F)cc2)n1
Result block: 0.892

Query block: Need normalized growth, item OC(COc1ccc(F)cc1)(c1ccc(Cl)cc1)c1ccc(Cl)cc1
Result block: 0.966

Query block: Need normalized growth, item Cc1c(C)c(C)c(C(=O)c2ccc(N=Cc3cc(Cl)cc(Cl)c3O)cc2)c(C)c1C
Result block: 0.382

Continuing:
Query block: Need normalized growth, item N#CSCC(=O)c1ccccc1
Result block: 0.14

Query block: Need normalized growth, item O=[N+]([O-])c1cccc(C2CC(c3ccccc3)=Nc3ccccc3S2)c1 (configuration not stated)
Result block: 0.996

###

experiment: chemical genetic growth profiling, strain panel (AID 1159580); conditions: S. cerevisiae deletion strains, growth OD, locus YKR026C, strain gcn3, active compounds read low
About 2,000 (36%) of roughly 5,500 compounds were called active. Roughly 18% stayed inconclusive and do not appear here. The list shows a part of the results.
Decision: normalized growth beneath 1 gives yes (1); normalized growth meeting or exceeding 1 gives no (0).

Study these solved cases before continuing.
Query block: Could you please tell me whether normalized growth recorded for CC1=CC(=O)c2ccccc2C1=O is less than 1?
Result block: no (0)

Query block: Could you please tell me whether normalized growth recorded for Cc1scc2c1N(C(=O)CN1CCN(C)CC1)c1ccccc1NC2=O is less than 1?
Result block: yes (1)

Could you now consider this next compound?
Query block: Could you please tell me whether normalized growth recorded for CS(=O)(=O)c1ccc([C@@H](O)[C@@H](CO)NC(=O)C(Cl)Cl)cc1 is less than 1?
Result block: no (0)

###

Measured normalized growth of individual entries
experiment: chemical genetic growth profiling, strain panel (AID 1159580); details: S. cerevisiae deletion strains, growth OD, locus YKR001C, strain vps1, active compounds read low
About 2,000 (36%) of roughly 5,500 compounds were called active. Not shown: some 18% with an inconclusive outcome. This is one part of the list.
API doc: respond with a numeric literal and nothing else, no unit.

Here are 6 molecules together with their reported answers.
Query block: Need normalized growth, item CC(CCc1ccccc1)NCC(O)c1ccc(O)c(C(N)=O)c1 (stereo not drawn)
Result block: 1.03

Query block: Need normalized growth, item NCC(N)C(=O)c1ccccc1 (stereo not drawn)
Result block: 0.979

Query block: Need normalized growth, item CCCN(CCC)S(=O)(=O)c1ccc(C(=O)O)cc1
Result block: 1.02

Query block: Need normalized growth, item CC(C)(C)NCC(O)c1ccc(O)c(CO)c1 (stereo not drawn)
Result block: 1.01

Query block: Need normalized growth, item CN(C)CCCN1c2ccccc2Sc2ccccc21
Result block: 1.02

Query block: Need normalized growth, item CC(N=C(NC#N)Nc1ccncc1)C(C)(C)C (stereo not drawn)
Result block: 1.02

Continuing:
Query block: Need normalized growth, item CC(=O)c1cc(CC=C(C)C)c(O)c(CC=C(C)C)c1
Result block: 0.898

Query block: Need normalized growth, item O=C(O)c1cccnc1
Result block: 0.986

Query block: Need normalized growth, item CN(C)CCCN1c2ccccc2Sc2ccc(C(F)(F)F)cc21
Result block: 0.978

Query block: Need normalized growth, item CC(=O)O[C@H]1CCC2(C)C3=C(CCC2C1(C)C)[C@@]1(C)CC[C@@H](C(C)CCC=C(C)C)[C@]1(C)CC3 (stereo partly drawn)
Result block: 0.997

Query block: Need normalized growth, item Cc1c(C)c2c(c(C)c1O)CCC(C)(CCCC(C)CCCC(C)CCCC(C)C)O2 (stereo not drawn)
Result block: 0.996

Query block: Need normalized growth, item CC(=O)c1ccc(O)c(CC=C(C)C)c1
Result block: 0.808

Query block: Need normalized growth, item NC(=O)NC(=O)Cc1ccccc1
Result block: 0.994

Query block: Need normalized growth, item CC(C)CCCC(C)C1CC[C@@]2(C)C3=C(CC[C@]12C)[C@@]1(C)CC[C@H](O)C(C)(C)C1CC3 (stereo partly drawn)
Result block: 0.984

Query block: Need normalized growth, item Nc1ccc(C(=O)O)cc1
Result block: 1.01

Query block: Need normalized growth, item O=C(O)c1ccc(S(=O)(=O)N(Cl)Cl)cc1
Result block: 1.02

Query block: Need normalized growth, item CN(C)CCCN1c2ccccc2CCc2ccc(Cl)cc21
Result block: 0.644

Query block: Need normalized growth, item COc1ccc(C2Sc3ccccc3N(CCN(C)C)C(=O)C2OC(C)=O)cc1 (stereo not drawn)
Result block: 1.04

Query block: Need normalized growth, item C=C1C[C@]23C[C@@]1(O)CC[C@H]2[C@@]12C=C[C@H](O)[C@@](C)(C(=O)O1)[C@H]2[C@@H]3C(=O)O
Result block: 1.01

###

assay: chemical genetic growth profiling, strain panel (AID 1159580); details: S. cerevisiae deletion strains, growth OD, locus YJL115W, strain asf1, active compounds read low
Out of some 5,500 compounds screened, about 2,000 (36%) were called active. Roughly 18% stayed inconclusive and do not appear here. Some of the results follow.
Measured normalized growth of individual entries
API doc: respond with a numeric literal and nothing else, no unit.

Query block: Need normalized growth, item CCC(C)C(=O)OC1[C@@H]2CC3=C4CC(=O)O[C@@H](c5ccoc5)[C@]4(C)CCC3[C@@](C)(C2=O)[C@@H](CC(=O)OC)C1(C)C (stereo partly drawn)
Result block: 1

Continuing:
Query block: Need normalized growth, item CCN(CC)CCOCCOC(=O)C1(c2ccccc2)CCCC1
Result block: 0.996

Query block: Need normalized growth, item O=C(O)C1=CCCNC1
Result block: 0.985

Query block: Need normalized growth, item CCN(CC)CCOC(=O)C1(C2CCCCC2)CCCCC1
Result block: 0.983

Query block: Need normalized growth, item CN(C)CCCN1c2ccccc2Sc2ccc(C(F)(F)F)cc21
Result block: 1.03

###

Measured normalized growth of individual entries
test: chemical genetic growth profiling, strain panel (AID 1159580);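 further: tested at 20 µM; growth read once vehicle control cultures reached saturation at 30 °C; 1 = growth at the plate median or of vehicle wells; lower values mean less growth of the strain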; details: S. cerevisiae deletion strains, growth OD, locus YER111C, strain swi4, active compounds read low
The whole screen tested about 5,500 compounds, of which about 2,000 (36%) were called active. About 18% were inconclusive and are not listed. The list shows a part of the results.
API doc: respond with a numeric literal and nothing else, no unit.

Query block: Need normalized growth, item CC(C)=CCc1c2c(c3occ(-c4ccc(O)cc4)c(=O)c3c1O)C=CC(C)(C)O2
Result block: 0.969

Query block: Need normalized growth, item NCC(N)C(=O)c1ccccc1 (stereo unspecified)
Result block: 1.03

Continuing:
Query block: Need normalized growth, item CC(C)=CCCC(C)[C@@H]1CC[C@]2(C)C3=C(CC[C@@]12C)C1(C)CC[C@H](O)C(C)(C)C1CC3 (stereo partly specified)
Result block: 1.08

Query block: Need normalized growth, item O=C(CC(=O)c1ccccc1)c1ccccc1
Result block: 0.204

###

assay: chemical genetic growth profiling, strain panel (AID 1159580);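 further: tested at 20 µM; growth read once vehicle control cultures reached saturation at 30 °C; 1 = growth at the plate median or of vehicle wells; lower values mean less growth of the strain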; settings: S. cerevisiae deletion strains, growth OD, locus YOR001W, strain rrp6, active compounds read low
In all, about 5,500 compounds went through this assay and about 2,000 (36%) were called active. Roughly 18% stayed inconclusive and do not appear here. The list shows a part of the results.
recorded.metric: normalized growth
API doc: respond with a numeric literal and nothing else, no unit.

Query block: Need normalized growth, item CN[C@@H]1[C@H](O)[C@H](NC)[C@H]2O[C@@]3(O)C(=O)C[C@@H](C)O[C@H]3O[C@@H]2[C@H]1O
Result block: 1.02

Continuing:
Query block: Need normalized growth, item CC(=O)N[C@@H](Cc1c[nH]c2ccccc12)C(N)=O
Result block: 1.04

Query block: Need normalized growth, item COC(=O)c1c(OC)cc2c(c1C)Oc1c(Cl)c(O)c(Cl)c(C)c1C(=O)O2
Result block: 1.01

###

test: chemical genetic growth profiling, strain panel (AID 1159580);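 further: tested at 20 µM; growth read once vehicle control cultures reached saturation at 30 °C; 1 = growth at the plate median or of vehicle wells; lower values mean less growth of the strain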; details: S. cerevisiae deletion strains, growth OD, locus YNL224C, strain SQS1, active compounds read low
Hit rate of the full screen: of about 5,500 compounds, about 2,000 (36%) were called active. Roughly 18% stayed inconclusive and do not appear here. This is one part of the list.
Measured normalized growth of individual entries
API doc: respond with a numeric literal and nothing else, no unit.

Query block: Need normalized growth, item CNCCCC12CCC(c3ccccc31)c1ccccc12
Result block: 1.01

Query block: Need normalized growth, item CNCCCC1c2ccccc2C=Cc2ccccc21
Result block: 1.06

Continuing:
Query block: Need normalized growth, item O=c1[nH]c2cc(Cl)ccc2c(O)c1-c1ccc(Oc2ccccc2)cc1
Result block: 1

Query block: Need normalized growth, item CN(C)C1C(=O)C(C(N)=O)=C(O)C2(O)C(=O)C3=C(O)c4c(O)ccc(Cl)c4C(O)C3CC12 (stereo unspecified)
Result block: 0.996

Query block: Need normalized growth, item NCCCNCCCCNCCCN
Result block: 0.986

Query block: Need normalized growth, item O=C1N(c2ccccc2)c2ccccc2C1(Cc1ccncc1)Cc1ccncc1
Result block: 1
